# reported composite z-score; entries follow
- assay.remarks: binders of probe aHhip on microarray, primary screen, stem cell growth factor project, biochemical, small-molecule microarray, fluorescence 635/667 (AID 1087);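 further: score merges spot fluorescence at 667nm with spot signal to noise ratio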
- experimental.context: higher = more signal
quantity.name: composite z-score

{"compound": "COCCOC(=O)N1C(=O)[C@@]2(c3cc(C#CCC(C(=O)OC)C(=O)OC)ccc31)[C@H](c1ccccc1OCCO)N1[C@H](c3ccccc3)[C@H](c3ccccc3)OC(=O)[C@H]1[C@@H]2C(=O)N1CCc2cc(OC)c(OC)cc2C1", "measured": -0.0655}
{"compound": "COC(=O)C(CC#Cc1ccc2c(c1)[C@]1(C(=O)N2)[C@H](c2ccc(OCCO)cc2)N2[C@H](c3ccccc3)[C@H](c3ccccc3)OC(=O)[C@H]2[C@@H]1C(=O)NC[C@H](O)c1ccccc1)C(=O)OC", "measured": 0.0274}
{"compound": "CCOC(=O)C1=CCC(c2ccc(C#N)cc2)N(S(=O)(=O)c2ccc(C)cc2)C1 (stereo not drawn)", "measured": 0.11}
{"compound": "CN(C)CCCNC(=O)[C@@]1(Cc2ccccc2I)c2ccccc2C(=O)N(Cc2ccccc2C(F)(F)F)[C@H]1c1ccc(CO)cc1", "measured": -0.0645}
{"compound": "CC(C)NC(=O)[C@@]1(Cc2ccccc2I)c2ccccc2C(=O)N(Cc2ccccc2)[C@H]1c1ccc(CO)cc1", "measured": 0.0401}
{"compound": "C[C@H]1NC(=O)[C@H](Cc2ccccc2)NC(=O)[C@@]23C(=O)N[C@@H](Cc4ccccc4)C2[C@H](C)[C@@]2(C)O[C@H]2C3/C=C/C/C=C\\CNC1=O (stereo partly drawn)", "measured": 0.238}
{"compound": "Cc1ccccc1C(O)C1C=CC2C(=O)N(C)C(=O)C2N1N1CCCCC1 (stereo not drawn)", "measured": -0.0296}
{"compound": "CCC(CC)C(O)C1C=CC2C(=O)N(c3ccccc3)C(=O)C2N1Nc1ccc(C#N)cc1 (stereo not drawn)", "measured": -0.271}
